// provenance: ChEMBL document CHEMBL1811766

target: Cannabinoid receptor 1 (Rattus norvegicus) (UniProt P20272); assay: Displacement of [3H]SR141716A from rat brain CB1 receptor at 1 uM at pH 7.4 after 1 hr by liquid scintillation counting
Sequence (P20272 whole entry): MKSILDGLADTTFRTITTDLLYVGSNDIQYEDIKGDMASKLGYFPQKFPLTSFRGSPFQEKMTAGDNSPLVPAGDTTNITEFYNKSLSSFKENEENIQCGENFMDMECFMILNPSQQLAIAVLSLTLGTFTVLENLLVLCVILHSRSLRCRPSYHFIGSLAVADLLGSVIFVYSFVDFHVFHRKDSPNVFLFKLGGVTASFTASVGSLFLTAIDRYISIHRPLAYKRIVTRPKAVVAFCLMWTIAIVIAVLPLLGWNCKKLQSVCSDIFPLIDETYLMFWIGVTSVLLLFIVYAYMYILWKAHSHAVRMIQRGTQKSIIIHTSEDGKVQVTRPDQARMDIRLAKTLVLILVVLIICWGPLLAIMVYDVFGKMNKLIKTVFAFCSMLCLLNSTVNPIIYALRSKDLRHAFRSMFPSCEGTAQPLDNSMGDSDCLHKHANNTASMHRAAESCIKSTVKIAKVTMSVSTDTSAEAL
Kindly supply the reported inhibition values for the records listed here.
Answers are plain numbers, in %.

CCc1c(C(=O)NC(C)(C)c2nnnn2C)nn(-c2ccc(Cl)cc2Cl)c1-c1ccc(C(=O)O)cc1 : 50
CCc1c(C(=O)NC(C)(C)c2nnnn2C)nn(-c2ccc(Cl)cc2Cl)c1-c1ccc(OCC(=O)O)cc1 : 25

Record inhibition for all entries; do not skip any.
1. Cc1c(C(=O)NC(C)(C)c2nc(CC(=O)O)cs2)nn(-c2ccc(Cl)cc2Cl)c1-c1ccc(Cl)cc1
2. O=C(NC1(c2noc(C(F)(F)F)n2)CC1)c1nn(-c2ccc(Cl)cc2Cl)c(-c2ccc(Cl)cc2)c1C(=O)O

Key:
1: 50; 2: 66

----------
experiment: Ratio of drug level in brain to plasma in Swiss albino mouse at 30 mg/kg, po measured 1 hr post dose; assay type: ADME, organism-based; set-up: dose 30 mg/kg, route oral; conditions: read-out: BPR
Readout: Kp at 1 h
One number for each entry.

Cc1c(C(=O)NN2CCCCC2)nn(-c2ccc(Cl)cc2Cl)c1-c1ccc(Cl)cc1 [RIMONABANT] : 3.64

Exercise: Bench note: what Kp at 1 h did Cc1c(C(=O)NC2(c3noc(C(F)(F)F)n3)CC2)nn(-c2ccc(Cl)cc2Cl)c1-c1ccc(Cl)cc1 show?
Key: 0.21

----------
target: Cannabinoid receptor 1 (Rattus norvegicus) (UniProt P20272); test: Displacement of [3H]SR141716A from rat brain CB1 receptor at 100 nM at pH 7.4 after 1 hr by liquid scintillation counting
Kindly supply the reported inhibition values for the records listed here.
Answers are plain numbers, in %.

Cc1c(C(=O)NC(C)(C)c2nnnn2C)nc(-c2ccc(Cl)cc2Cl)n1-c1ccc(Cl)cc1 : 42
COc1ccc2c(c1)CCCc1c(C(=O)NC(C)(C)c3nnnn3C)nn(-c3ccc(Cl)cc3Cl)c1-2 : 38
CCc1c(C(=O)NC(C)(C)c2nnnn2C)nn(-c2ccc(Cl)cc2Cl)c1-c1ccc(O)cc1 : 23

Record inhibition for all entries; do not skip any.
1. CCOC(=O)COc1ccc(-c2c(CC)c(C(=O)NC(C)(C)c3nnnn3C)nn2-c2ccc(Cl)cc2Cl)cc1
2. O=C(NC1(c2noc(C(F)(F)F)n2)CC1)c1nn(-c2ccc(Cl)cc2Cl)c(-c2ccc(Cl)cc2)c1C(=O)O

Key:
32
44

----------
molecular target: UniProt P34972; test: Displacement of [3H]CP55940 from human cannabinoid CB2 receptor expressed in CHO cells at 1 uM at pH 7.4 after 1 hr by liquid scintillation counting; assay type: cell-based
Sequence (P34972 whole entry): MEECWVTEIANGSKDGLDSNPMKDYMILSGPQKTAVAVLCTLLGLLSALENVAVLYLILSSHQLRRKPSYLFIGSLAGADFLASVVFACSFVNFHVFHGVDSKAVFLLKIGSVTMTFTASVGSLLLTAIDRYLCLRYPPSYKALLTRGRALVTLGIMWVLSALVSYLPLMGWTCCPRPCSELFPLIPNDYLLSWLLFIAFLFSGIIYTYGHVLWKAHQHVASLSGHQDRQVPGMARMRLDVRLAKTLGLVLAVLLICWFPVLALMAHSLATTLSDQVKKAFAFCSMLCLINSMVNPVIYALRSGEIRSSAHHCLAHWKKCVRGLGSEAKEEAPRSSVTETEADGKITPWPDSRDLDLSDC
Readout: inhibition

Worked examples follow.
O=C(NC1(c2noc(C(F)(F)F)n2)CC1)c1nn(-c2ccc(Cl)cc2Cl)c(-c2ccc(Cl)cc2)c1CO : 18%
CC(C)(NC(=O)c1nn(-c2ccc(Cl)cc2Cl)c(-c2ccc(Cl)cc2)c1CO)c1noc(C(F)(F)F)n1 : 34%
Cc1c(C(=O)NC2(c3noc(C(F)(F)F)n3)CC2)nn(-c2ccc(Cl)cc2Cl)c1-c1ccc(Cl)cc1 : 49%
Cc1c(C(=O)NN2CCCCC2)nn(-c2ccc(Cl)cc2Cl)c1-c1ccc(Cl)cc1 : 34%
CCc1c(C(=O)NC(C)(C)c2nnnn2C)nn(-c2ccc(Cl)cc2Cl)c1-c1ccc(Cl)cc1 : 16%
Cc1c(C(=O)NC(C)(C)c2nnc(C(F)(F)F)o2)nn(-c2ccc(Cl)cc2Cl)c1-c1ccc(Cl)cc1 : 64%

Kindly consider the entry below.
Exercise: Bench note: what inhibition did CCc1c(C(=O)NC(C)(C)c2nnnn2C)nn(-c2ccc(Cl)cc2Cl)c1-c1ccc(Br)cc1 show?
Key: 27%
